system-tested: T1, ZIKV E protein (Suriname Z1106033) (Zika virus, Suriname Z1106033, UniProt A0A0U4DG08, strain)
T1 construct: also called soluble ZIKV E protein
measurement-protocol: BLI; Octet HTX; MAb 0.1 to 0.3 μg/mL amine-coupled to AR2G biosensor; ZIKV-VLP 0.1 to 1.0 μg/mL or ZIKV E protein 0.2 to 2 μg/mL in 1x kinetic buffer; association 900 s, dissociation 1,200 s; Langmuir 1:1 model; average of two runs
experimental-parameters: both partners purified
Rule: koff under 0.0001 s⁻¹ gives 0, otherwise 1.

Solved entries (count: 3):
{"binder": "anti-ZIKV MAb 306-2 (antibody, V domains shown) VH: QSLEESGGDLVKPGASLTLTCTASGFDFSDRYYMCWVRQAPGKGLEWIGCIYVGSGDTYYASWAKGRFTISRTSSTTVTLQMTRLTAADTATYFCARHPGTYFTLWGPGTLVTVSS VL: DVVMTQTPSSVSAAVGGTVTINCQASQNIVNNLAWYQQRPGQPPKLLIYDTSTLASGVPSRFKGSGSGTEFTLTISDLECADAATYYCQTYYYYNKIINGFGGGTEVVVK", "category-label": 0}
{"binder": "anti-ZIKV MAb 289-3 (antibody, V domains shown) VH: QEELEESGGDLVKPGASLTLTCKASGFSFSSGAYICWVRQAPGKGPEWIACIYTGDGRTYYANWAKRRFTISSSSSTTVALEMPSLTDADTATYFCARAIAVGAGYGVGNYFTLWGPGTLVTVSS VL: DIVMTQTPSSVSAAVGGTVTINCHASENIYGYLSWYQQKPGQPPKLLIYKASTLASGVPSRFKGSGAGTQFTLTITALECADAATYYCQSYYTSSSNADGSENAFGGGTEVVVE", "category-label": 0}
{"binder": "anti-ZIKV MAb 242-3 (antibody, V domains shown, recombinant rabbit IgG; 99% amino acid identity with 270-12) VH: QAQLEESGGDLVKPEGSLTLTCTASGFSFTDRHYMCWIRQAPGKGLEWIACVYPGSSGSTYYASWARGRFTISKTSSTTVTLRMTSLTAADTATYFCARSSYPDSSGYSYGMDLWGPGTLVTVSS VL: DIVMTQTPASVEAAVGGTVTIKCQASQNINSNLAWYQQKPGQRPKFLMYLTSKLASGVPSRFRGSGSGTQFTLTISDLECADAATYYCQTYYDISNYGYAFGGGTEVVVK", "category-label": 0}

**Query** // inclusive: koff at least 0.0001 s⁻¹? input: anti-ZIKV MAb 78-2 (antibody, V domains shown) VH: QQQLVESGGGLVKPGASLTLNCKASGLDFSTNSYMCWVRQAPGKGLEWIACIYVGDSSEIYYASWAKGRFTISKTSSTTVTLQMTSLTAADTATYFCARDLPSFTAPYAGYLRLWGPGTLVTVSS VL: QPVLTQPPSLSASLGTTARLTCTLRTGYNVGDYPLLWLQRVPGRPPRYLLTYHTEEFKHQGSGVHSRFSGSKDASENAGVLSISGLQPEDEANYYCYTVHATESSLHYVFGGGTQLTVT
**Result** 0

**Query** Lookup anti-ZIKV MAb 11-3 (antibody, V domains shown, recombinant rabbit IgG) VH: QEQLVESGGGLVQPEGSLTITCTGSGFSFSSRFYMCWVRQAPGKGLEWIACIYGGSSGSTYYASWAKGRFTISKTSSTTVTLQISSLTAADTATYFCARGGSTAAAGFNLWGPGTLLTVSS VL: DVVMTQTPASVSATVGGTVTIKCQASEDIYNLLAWYQQKPGQPPKLLIYYASTLASGVPSRFKGSGSGTEFTLTISDLECADAATYYCQCNDYGGTYVPNAFGGGTEVVVK
**Result** 1

// provenance: paper PMC9175631
